Target: T1, recombinant human TIGIT (Sino Biological) (human, UniProt Q495A1 22-138)
T1 construct: Bought protein; NP_776160.2; also called human TIGIT antigen; hTIGIT
T1 sequence: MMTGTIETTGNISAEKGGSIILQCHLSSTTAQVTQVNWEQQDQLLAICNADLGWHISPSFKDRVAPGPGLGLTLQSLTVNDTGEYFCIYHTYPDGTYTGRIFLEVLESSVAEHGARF
Assay: SPR (Biacore T200), single cycle kinetics, IgG from supernatant captured on anti-human chip, TIGIT as analyte, 1:1 fit;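 further: measured at 25 °C in HBS-P+ with 1% BSA, four ascending TIGIT concentrations, 210 s association per step, one final 900 s dissociation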
The entries below are paired with their reported koff.
Express the result in s⁻¹ but write the number alone.

>  <binder>
7A6 VH4/Vκ5 humanized antibody (human IgG1, kappa) (antibody, V domains shown, Tested as IgG in supernatant of transiently transfected HEK293 EBNA cells) VH: QVQLQESGPGLVKPSQTLSLTCTVTGYSITSDYAWNWIRQPPGKGLEWMGYISYSGSARYNPSLKSRVTISRDTSKNQFSLKLSSVTAADTAVYYCARKGYPAYFAYWGQGTLVTVSS VL: DIQMTQSPSSLSASVGDRVSITCKASQDVSTAVAWYQQKPGQAPRLLIYSASYRYTGVPDRFSGSGSGTDFTLTISSLQPEDFATYYCQHHYSTPYTFGQGTKLEIKR

>  <measured.endpoint>
koff

>  <meas.value>
0.00162

$$$$

Shift focus to the following entry.
Query string: Endpoint output: koff of 7A6 VH1/Vκ1 humanized antibody (human IgG1, kappa) (antibody, V domains shown, Tested as IgG in supernatant of transiently transfected HEK293 EBNA cells) VH: DVQLQESGPGLVKPSQTLSLTCTVTGYSITSDYAWNWIRQPPGKGLEWMGYISYSGSARYNPSLKSRITISRDTSMNQFSLKLNSVTAEDTATYYCARKGYPAYFAYWGQGTLVTVSS VL: DIVMTQSHSFLSASVGDRVSITCKASQDVSTAVAWYQQKPGQAPELLIYSASYRYTGVPDRFTGSGSGTDFTLTISSLQAEDVAVYYCQHHYSTPYTFGQGTKLEMKR . Value?
Result string: 0.00129

The reported numbers originate from patent US20250064909A1.
